System: Moraxella catarrhalis
Test: MIC against Gram-negative bacteria: Moraxella catarrhalis
Type: cell-based
Conditions: M. catarrhalis; 10 h cultivation at 37° C.; 5×10^5 CFU/mL
observed property: MIC (μg/mL) M. catarrhalis

Completed entries (count: 3):
PRT891 (DVDECASTPCKNGAKCLDGPNTYTCVCTEGYTGTHCE; listed as Homo sapiens)	25 µg/mL
PRT758 (RVDHCAQQDHGCEQLCLNTEDSFVCQCSEGFLINEDLKTCS; listed as Homo sapiens)	12.5 µg/mL
PRT804 (HGAHCELRCPCQNGGTCHHITGECACPPGWTGAVCA; listed as Homo sapiens)	50 µg/mL

Input PRT800 (GRVCQCQNGASCDHISGKCTCRTGFTGQHCE; listed as Homo sapiens) . Output MIC (μg/mL) M. catarrhalis: 12.5 µg/mL

get_value(item= PRT809 (NESCTCANGAACSPIDGSCSCTPGWLGDTCE; listed as Homo sapiens) , readout=MIC (μg/mL) M. catarrhalis) returns 50 µg/mL

response.value for PRT882 (SAKQCDSYPCKNNAVCKDGWNRFICDCTGTGYWGRTCE; listed as Homo sapiens) (field: MIC (μg/mL) M. catarrhalis) = 12.5 µg/mL

---

Here the recorded MIC S. marcescens is given for each entry.
Tested on: Serratia marcescens
Assay: MIC against Gram-negative bacteria: Serratia marcescens
Format: cell-based
Conditions: 96-well plate, 5×10^5 CFU/mL, 37° C., 10 h
Return type: number; implicit unit µg/mL.

PRT704 (LLSNCQQLNCQYKCTMVRNSTRCYCEDGFEITEDGRSCK; listed as Homo sapiens)	12.5
PRT597 (CDCNRAGTQKPICDPDTGMCRCREGVSGQRCDRCARGHSQEFPTCLQ; listed as Homo sapiens)	12.5
PRT595 (CSCHASGVSPMECPPGGGACLCDPVTGACPCLPNVTGLACDRCADGYWNLVPGRGCQS; listed as Homo sapiens)	25
PRT619 (CNCQGGGACDPDTGDCYSGDENPDIECADCPIGFYNDPHDPRSCKP; listed as Homo sapiens)	50

# MIC S. marcescens (substance: PRT663 (DVNECDDLNGPAVLCVHGYCENTEGSYRCHCSPGYVAEAGPPHCT; listed as Homo sapiens) ) is 12.5

Noted for PRT732 (SVNPCAFSRCSHLCLLSSQGPHFYSCVCPSGWSLSPDLLNCL; listed as Homo sapiens) : its MIC S. marcescens reads 12.5

The substance identified as PRT730 (NGNSCSDFNGGCTHECVQEPFGAKCLCPLGFLLANDSKTCE; listed as Homo sapiens) registered its MIC S. marcescens at 25

---

System: Pseudomonas aeruginosa
Assay: MIC against Gram-negative bacteria: Pseudomonas aeruginosa
Assay type: cell-based
Conditions: Pseudomonas aeruginosa; 96-well plate, 5×10^5 CFU/mL, 37° C., 10 h
observed property: MIC (μg/mL) P. aeruginosa (µg/mL)
# number only, unit µg/mL dropped from output

PRT15 (GDHPCLPNPCHGGAPCQNLEAGRFHCQCPPGRVGPTCA; listed as Homo sapiens)	25
PRT78 (KKNVCDSNTCHNGGTCVNQWDAFSCECPLGFGGKSCA; listed as Homo sapiens)	50
PRT73 (TNGQCQCKENYYKLLAQDTCLPCDCFPHGSHSRTCD; listed as Homo sapiens)	25
PRT124 (ITDRCSPNMCEHDGRCYQSWDDFICYCELTGYKGETCH; listed as Homo sapiens)	12.5
PRT129 (CSTYGHLCRNGGRCREKRRGVTCDCAFSAYDGPFC; listed as Homo sapiens)	50
PRT42 (CQCNGHSKCINQSICEKCENLTTGKHCETCISGFYGDPTNGGKCQP; listed as Homo sapiens)	25

For PRT5 (DGDQCETSPCQNQGKCKDGLGEYTCTCLEGFEGKNCE; listed as Homo sapiens) the substance record lists MIC (μg/mL) P. aeruginosa as 25

// MIC (μg/mL) P. aeruginosa lookup, substance = PRT114 (PKYGCNFNNGGCHQDCFEGGDGSFLCGCRPGFRLLDDLVTCA; listed as Homo sapiens) , result: 12.5

---

Tested on: Serratia marcescens
Experiment: MIC against Gram-negative bacteria: Serratia marcescens
Format: cell-based
Conditions: 10 h cultivation at 37° C., 5×10^5 CFU/mL, two-fold serial dilution
Procedure: 1. Gram-negative bacteria, such as E. coli BL21, Pseudomonas aeruginosa, Klebsiella pneumonia, Enterobacter cloacae, Aeromonas hydrophila, Citrobacter diversus, Moraxella catarrhalis, Proteus mirabilis, Proteus vulgaris, Serratia marcescens, etc were streaked on solid LB medium and cultured respectively. Then, typical clones were picked, inoculated into common liquid LB medium respectively, and cultured at 37° C. with shaking at 185 rpm until the McFarland specific turbidity was 0.5. […]
observed property: MIC S. marcescens (µg/mL)
Report as a plain number; the unit µg/mL is understood.

PRT1146 (SIDNCAEPELNSVICLNGGICVDGPGHTFDCRCLPGFSGQFCE; listed as Homo sapiens)	12.5
PRT1086 (HFKPCRDKDLAYCLNDGECFVIETLTGSHKHCRCKEGYQGVRCD; listed as Homo sapiens)	12.5
PRT1092 (ILLGCTHQQCLNNGTCIPHFQDGQHGFSCLCPSGYTGSLCE; listed as Homo sapiens)	25

Now for another entry.
Recorded result, PRT1191 (AEHACTSNPCANGGSCHEVPSGFECHCPSGWSGPTCA; listed as Homo sapiens) , MIC S. marcescens: 50

---

# Lookup of reported MIC against P. mirabilis keyed by entry
System: Proteus mirabilis
Assay: MIC against Gram-negative bacteria: Proteus mirabilis
Format: cell-based
Conditions: 96-well plate, 5×10^5 CFU/mL, 37° C., 10 h
Your answer is read as mg/L, so omit the unit and give the number.

Worked examples, 3 substances total:
PRT527 (CPCPHTNSFATGCVVNGGDVRCSCKAGYTGTQCERCAPGYFGNPQKFGGSCQP; listed as Homo sapiens)	25
PRT455 (DVNECSQENGGCLQICHNKPGSFHCSCHSGFELSSDGRTCQ; listed as Homo sapiens)	50
PRT537 (CDCNGNSNECLDGSGYCVHCQRNTTGEHCEKCLDGYIGDSIRGAPQFCQP; listed as Homo sapiens)	12.5

Now let's try a different one.
Record PRT506 (CNCSVAGSVSDGCTDEGQCHCVPGVAGKRCDRCAHGFYAYQDGSCTP; listed as Homo sapiens) . Reported MIC against P. mirabilis: 25

---

Test system: Pseudomonas aeruginosa
Test: MIC against Gram-negative bacteria: Pseudomonas aeruginosa
Assay type: cell-based
Details: 96-well plate, 5×10^5 CFU/mL, 37° C., 10 h
observed property: MIC against P. aeruginosa (µg/mL)
Field: numeric (µg/mL). Do not append units.

For orientation, consider the following solved cases.
PRT525 (CNCNRDGTEPGVCDPGTGACLCKENVEGTECNVCREGSFHLDPANLKGCTS; listed as Homo sapiens)	25
PRT482 (ECIDDETEEICGGHGKCYCGNCYCKAGWHGDKCE; listed as Homo sapiens)	50
PRT557 (CGCSPAGTLPEGCDEAGRCLCQPEFAGPHCDRCRPGYHGFPNCQA; listed as Homo sapiens)	12.5

Consider now this further substance.
Please fill in: MIC against P. aeruginosa reported for PRT453 (DINECEQFGTCPQHCRNTKGSYECVCADGFT; listed as Homo sapiens) = 25

---

MIC against C. diversus overview
Tested on: Citrobacter diversus
Test: MIC against Gram-negative bacteria: Citrobacter diversus
Assay type: cell-based
Conditions: Citrobacter diversus; 96-well plate, 5×10^5 CFU/mL, 37° C., 10 h
State the answer as a number, implicitly in µg/mL.

Please review the entries below; each comes with its answer.
PRT1331 (EIDPCADGLNGGCHEHATCKMTGPGKHKCECKSHYVGDGLNCE; listed as Homo sapiens)	25
PRT1207 (DIDECSDGFVQCDSRANCINLPGWYHCECRDGYHDNGMFSPSGESCE; listed as Homo sapiens)	12.5
PRT1256 (DVDECQDNNGGCQQICVNAMGSYECQCHSGFFLSDNQ; listed as Homo sapiens)	12.5
PRT1197 (DIDECAAKMHYCHANTVCVNLPGLYRCDCVPGYIRVDDFSCT; listed as Homo sapiens)	25
PRT1271 (DTNECSINNGGCQQVCVNTVGSYECQCHPGYKLHWNKKDCV; listed as Homo sapiens)	12.5
PRT1338 (EMDPCTGLTPGGCSRNAECIKTGTGTHTCVCQQGWTGNGRDCS; listed as Homo sapiens)	12.5
PRT1217 (EITACFPNPCRNGGSCDPIGNTFICNCKAGLTGVTCE; listed as Homo sapiens)	25
PRT1232 (IGQQCPNMCSGHGSCDHGICRCDQGYQGTECH; listed as Homo sapiens)	25

Observed MIC against C. diversus, Citrobacter diversus, PRT1204 (DIDECGTGRHSCANDTICFNLDGGYDCRCPHGKNCT; listed as Homo sapiens) : 25

The substance PRT1301 (DNDDCVAHKCRHGAQCVDTINGYTCTCPQGFSGPFCE; listed as Homo sapiens) , tested on Citrobacter diversus, showed MIC against C. diversus of 12.5

Test item PRT1330 (VVDFCKQDNGGCAKVARCSQKGTKVSCSCQKGYKGDGHSCT; listed as Homo sapiens) ; Citrobacter diversus; reported MIC against C. diversus was 50

# value of MIC against C. diversus, Citrobacter diversus, item PRT1304 (ARDPCLGHRCHHGKCVATGTSYMCKCAEGYGGDLCD; listed as Homo sapiens) = 12.5
